Recorded inhibition for the following molecules
Molecular target: Beta-secretase 1 (Homo sapiens) (UniProt P56817)
Sequence (P56817 whole entry): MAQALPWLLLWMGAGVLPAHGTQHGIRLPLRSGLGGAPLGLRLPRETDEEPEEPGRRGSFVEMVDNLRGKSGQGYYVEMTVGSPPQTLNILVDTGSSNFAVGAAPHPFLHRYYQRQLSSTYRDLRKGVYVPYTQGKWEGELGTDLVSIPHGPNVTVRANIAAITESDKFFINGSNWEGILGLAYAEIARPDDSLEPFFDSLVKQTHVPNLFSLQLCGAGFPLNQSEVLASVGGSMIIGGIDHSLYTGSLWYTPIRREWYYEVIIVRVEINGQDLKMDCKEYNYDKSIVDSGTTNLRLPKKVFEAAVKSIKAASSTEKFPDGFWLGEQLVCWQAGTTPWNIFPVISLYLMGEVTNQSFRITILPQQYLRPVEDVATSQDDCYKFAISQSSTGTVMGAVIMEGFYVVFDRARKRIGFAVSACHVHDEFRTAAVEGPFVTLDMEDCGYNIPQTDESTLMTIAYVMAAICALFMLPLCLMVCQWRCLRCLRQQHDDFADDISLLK
Experiment: Inhibition of human recombinant BACE1 at 2 uM by FRET assay
# number only, unit % dropped from output

Example cases with answers are listed next.
1. CC(C)C[C@H](NC(=O)[C@@H](NC(=O)[C@@H](N)CNC(=O)c1[nH]c(=O)[nH]c(=O)c1F)C(C)C)C(=O)NC(C)(C)Cc1ccc([N+](=O)[O-])cc1 :: 27
2. CC(C)C[C@H](NC(=O)[C@@H](NC(=O)[C@@H](N)CNC(=O)c1[nH]c(=O)[nH]c(=O)c1F)C(C)C)C(=O)NC(C)(C)Cc1ccc(Br)cc1 :: 85
3. CC(C)C[C@H](NC(=O)[C@@H](NC(=O)[C@@H](N)CNC(=O)c1[nH]c(=O)[nH]c(=O)c1F)C(C)C)C(=O)NC(C)(C)Cc1ccccc1 :: 90
4. CC(C)[C@H](NC(=O)[C@@H](N)CNC(=O)c1nn[nH]n1)C(=O)N[C@@H](CC1CCCCC1)C(=O)NC(C)(C)Cc1ccccc1 :: 76
5. CC(C)[C@H](NC(=O)[C@@H](N)CNC(=O)c1[nH]c(=O)[nH]c(=O)c1F)C(=O)N[C@@H](CC1CCCCC1)C(=O)NC(C)(C)Cc1cc(F)cc(F)c1 :: 91

Prompt: Please report inhibition with Beta-secretase 1 (Homo sapiens) (UniProt P56817) for item "CC(C)[C@H](NC(=O)[C@@H](N)CNC(=O)c1cc(O)ccc1O)C(=O)N[C@@H](CC1CCCCC1)C(=O)NC(C)(C)Cc1ccc(I)cc1I" .
Response: 88

Prompt: Please report inhibition with Beta-secretase 1 (Homo sapiens) (UniProt P56817) for item "CC(C)C[C@H](NC(=O)[C@@H](NC(=O)[C@@H](N)CNC(=O)c1[nH]c(=O)[nH]c(=O)c1F)C(C)C)C(=O)N1CCCC1" .
Response: 88

Prompt: Please report inhibition with Beta-secretase 1 (Homo sapiens) (UniProt P56817) for item "Cc1ccccc1CC(C)(C)NC(=O)[C@H](CC(C)C)NC(=O)[C@@H](NC(=O)[C@@H](N)CNC(=O)c1[nH]c(=O)[nH]c(=O)c1F)C(C)C" .
Response: 91

Prompt: Please report inhibition with Beta-secretase 1 (Homo sapiens) (UniProt P56817) for item "CC(C)C[C@H](NC(=O)[C@@H](NC(=O)[C@@H](N)CNC(=O)c1[nH]c(=O)[nH]c(=O)c1F)C(C)C)C(=O)N1CCCCCC1" .
Response: 89

Prompt: Please report inhibition with Beta-secretase 1 (Homo sapiens) (UniProt P56817) for item "CC(C)C[C@H](NC(=O)[C@@H](NC(=O)[C@@H](N)CNC(=O)c1[nH]c(=O)[nH]c(=O)c1F)C(C)C)C(=O)N1CCCCC1" .
Response: 91

Prompt: Please report inhibition with Beta-secretase 1 (Homo sapiens) (UniProt P56817) for item "CC(C)C[C@H](NC(=O)[C@@H](NC(=O)[C@@H](N)CNC(=O)c1nn[nH]n1)C(C)C)C(=O)NC(C)(C)Cc1ccccc1" .
Response: 70
